test system: Mtb (CDC1551); experiment: BDQ potentiation MIC99 microbroth assay, Mtb; type: cell-based, Mycobacterium tuberculosis; conditions: 6-azasteroid fixed at 20 μM; relative to BDQ MIC99 without azasteroid
Recorded Endpoint: Fold ∆ of BDQ MIC, Mtb (fold)

compound="C[C@]12CCC3C(CNC4=CC(=O)CC[C@@]43C)C1CCC2C(=O)NC(c1ccc(C(F)(F)F)cc1)c1ccc(C(F)(F)F)cc1 (stereo partly drawn) [compound 25]" recorded_endpoint="Fold ∆ of BDQ MIC, Mtb" modifier_sign== numeric_result=8
compound="C[C@]12CCC3C(CNC4=CC(=O)CC[C@@]43C)C1CCC2C(=O)NC(c1ccc(OC(F)F)cc1)c1ccc(OC(F)F)cc1 (stereo partly drawn) [compound 22]" recorded_endpoint="Fold ∆ of BDQ MIC, Mtb" modifier_sign=> numeric_result=32
compound="CC12CCC(=O)CC1CCC1C2CCC2(C)C(C(=O)NC(c3ccc(OC(F)(F)F)cc3)c3ccc(OC(F)(F)F)cc3)CCC12 (stereo not drawn) [compound 34]" recorded_endpoint="Fold ∆ of BDQ MIC, Mtb" modifier_sign== numeric_result=1
compound="CCCN1CC2C3CCC(C(=O)NC(c4ccc(C(F)(F)F)cc4)c4ccc(C(F)(F)F)cc4)[C@@]3(C)CCC2[C@@]2(C)CCC(=O)CC12 (stereo partly drawn) [compound 27]" recorded_endpoint="Fold ∆ of BDQ MIC, Mtb" modifier_sign== numeric_result=2
compound="C[C@]12CCC(O)CC1NCC1C2CC[C@]2(C)C(C(=O)NC(c3ccc(F)cc3)c3ccc(OC(F)(F)F)cc3)CCC12 (stereo partly drawn) [compound 21]" recorded_endpoint="Fold ∆ of BDQ MIC, Mtb" modifier_sign=> numeric_result=32
compound="C[C@]12CCC3C(CNC4=CC(=O)CC[C@@]43C)C1CCC2C(=O)NC(c1ccncc1)c1ccc(F)cc1 (stereo partly drawn) [compound 18]" recorded_endpoint="Fold ∆ of BDQ MIC, Mtb" modifier_sign== numeric_result=4
compound="CC(=O)N1CC2C3CCC(C(=O)NC(c4ccc(OC(F)(F)F)cc4)c4ccc(OC(F)(F)F)cc4)[C@@]3(C)CCC2[C@@]2(C)CCC(=O)CC12 (stereo partly drawn) [compound 31]" recorded_endpoint="Fold ∆ of BDQ MIC, Mtb" modifier_sign== numeric_result=1
compound="C[C@]12CCC3C(CNC4=CC(=O)CC[C@@]43C)C1CCC2C(=O)Nc1ccc(C(=O)c2ccccc2)cc1 (stereo partly drawn) [compound 43]" recorded_endpoint="Fold ∆ of BDQ MIC, Mtb" modifier_sign== numeric_result=8
compound="CCCN1CC2C3CCC(C(=O)NC(c4ccc(F)cc4)c4ccc(C(F)(F)F)cc4)[C@@]3(C)CCC2[C@@]2(C)CCC(=O)C=C12 (stereo partly drawn) [compound 16]" recorded_endpoint="Fold ∆ of BDQ MIC, Mtb" modifier_sign== numeric_result=64
compound="C[C@]12CCC3C(CNC4=CC(=O)CC[C@@]43C)C1CCC2C(=O)NC(c1ccc(F)cc1)c1ccc(C(F)(F)F)cc1 (stereo partly drawn) [compound 15]" recorded_endpoint="Fold ∆ of BDQ MIC, Mtb" modifier_sign== numeric_result=64
compound="CC12CCC(=O)C=C1CCC1C2CCC2(C)C(C(=O)NC(c3ccc(OC(F)(F)F)cc3)c3ccc(OC(F)(F)F)cc3)CCC12 (stereo not drawn) [compound 33]" recorded_endpoint="Fold ∆ of BDQ MIC, Mtb" modifier_sign== numeric_result=1

* * *

tested on: THP-1 cells; test: Cytotoxicity assay (Alamar Blue), THP-1; format: cell-based; details: 72 h, read-out: Mammalian Cell IC50, THP1
pIC50: −log10 of the molar value.
Recorded Endpoint: pIC50

molecule="CCCN1CC2C3CCC(C(=O)NC(c4ccc(OC(F)F)cc4)c4ccc(OC(F)F)cc4)[C@@]3(C)CCC2[C@@]2(C)CCC(=O)CC12 (some centres unmarked) [compound 24]" modifier_sign=< numeric_result=4.00
molecule="CCCN1CC2C3CCC(C(=O)NC(c4ccc(OC(F)(F)F)cc4)c4ccc(OC(F)(F)F)cc4)[C@@]3(C)CCC2[C@@]2(C)CCC(=O)C=C12 (some centres unmarked) [compound 36]" modifier_sign=< numeric_result=4.00
molecule="C[C@]12CCC3C(CNC4=CC(=O)CC[C@@]43C)C1CCC2C(=O)NC(c1ccc(F)cc1)c1ccc(F)cc1 (some centres unmarked) [compound 12]" modifier_sign== numeric_result=4.62
molecule="CC(C)(C)c1ccc(C(C)(C)C)c(NC(=O)C2CCC3C4CNC5CC(=O)CC[C@]5(C)C4CC[C@]23C)c1 (some centres unmarked) [compound 3]" modifier_sign== numeric_result=4.85
molecule="CCCN1CC2C3CCC(C(=O)NC(c4ccc(C(F)(F)F)cc4)c4ccc(C(F)(F)F)cc4)[C@@]3(C)CCC2[C@@]2(C)CCC(=O)CC12 (some centres unmarked) [compound 27]" modifier_sign=< numeric_result=4.00
molecule="C[C@]12CCC(=O)CC1NCC1C2CC[C@]2(C)C(C(=O)NC(c3ccc(OC(F)(F)F)cc3)c3ccc(OC(F)(F)F)cc3)CCC12 (some centres unmarked) [compound 29]" modifier_sign== numeric_result=5.35
molecule="C[C@]12CCC3C(CN(CC4CC4)C4CC(=O)CC[C@]34C)C1CCC2C(=O)NC(c1ccc(OC(F)(F)F)cc1)c1ccc(OC(F)(F)F)cc1 (some centres unmarked) [compound 38]" modifier_sign== numeric_result=5.00
molecule="CCCN1CC2C3CCC(C(=O)Nc4cc(C(C)(C)C)ccc4C(C)(C)C)[C@@]3(C)CCC2[C@@]2(C)CCC(=O)CC12 (some centres unmarked) [compound 4]" modifier_sign== numeric_result=4.14
